- assayed.target: T1, human PVRIG-mFc protein (Acro, PVG-H5253) (human, UniProt Q6DKI7 41-171, limits assumed)
- T1 construct: extracellular domain; Bought protein; also called PVRIG-ECD-mFc; not shown: mouse Fc tag of the bought protein
- T1 sequence (looked up): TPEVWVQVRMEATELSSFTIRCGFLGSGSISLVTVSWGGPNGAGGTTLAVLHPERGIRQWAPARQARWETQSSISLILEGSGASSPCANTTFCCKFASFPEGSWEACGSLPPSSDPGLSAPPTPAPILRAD
- assay.details: FACS blocking of PVRIG-mFc binding to CHO-K1-CD112 cells; competitor CD112
Please go through the items and note down their % IC50 to COM701-hIgG4.
Give bare numbers, in %.

binder	numeric.readout
PVRIG-A50-H1b (Fc fusion, VHH-human IgG1 Fc format is stated for the parental VHH antibodies; not restated for the humanized variants; also called A50.VH1b; not shown: human IgG1 hinge-CH2-CH3 (Fc)) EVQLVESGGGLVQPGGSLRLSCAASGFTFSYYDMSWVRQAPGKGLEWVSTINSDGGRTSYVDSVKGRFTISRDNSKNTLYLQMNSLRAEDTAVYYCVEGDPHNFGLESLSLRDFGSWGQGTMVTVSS	95.2
PVRIG-A50 (Fc fusion, Alpaca VHH expressed as VHH-hinge-CH2-CH3 of human IgG1 (heavy-chain antibody); also called PVRIG-50; not shown: human IgG1 hinge-CH2-CH3 (Fc)) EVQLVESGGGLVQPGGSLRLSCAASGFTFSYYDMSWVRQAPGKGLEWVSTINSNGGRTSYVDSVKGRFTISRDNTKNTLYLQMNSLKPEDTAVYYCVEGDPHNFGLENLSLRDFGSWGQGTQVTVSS	117
PVRIG-A118-H1 (Fc fusion, VHH-human IgG1 Fc format is stated for the parental VHH antibodies; not restated for the humanized variants; also called A118.VH1; not shown: human IgG1 hinge-CH2-CH3 (Fc)) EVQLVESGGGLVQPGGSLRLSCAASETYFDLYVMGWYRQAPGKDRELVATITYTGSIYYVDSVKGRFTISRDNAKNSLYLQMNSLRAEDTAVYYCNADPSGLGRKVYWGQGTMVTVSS	141
PVRIG-A105-H1 (Fc fusion, VHH-human IgG1 Fc format is stated for the parental VHH antibodies; not restated for the humanized variants; also called A105.VH1; not shown: human IgG1 hinge-CH2-CH3 (Fc)) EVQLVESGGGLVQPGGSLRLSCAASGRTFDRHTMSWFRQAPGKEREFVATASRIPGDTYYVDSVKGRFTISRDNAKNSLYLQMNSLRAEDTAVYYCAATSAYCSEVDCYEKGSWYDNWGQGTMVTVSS	104
PVRIG-A118-H2 (Fc fusion, VHH-human IgG1 Fc format is stated for the parental VHH antibodies; not restated for the humanized variants; also called A118.VH2; not shown: human IgG1 hinge-CH2-CH3 (Fc)) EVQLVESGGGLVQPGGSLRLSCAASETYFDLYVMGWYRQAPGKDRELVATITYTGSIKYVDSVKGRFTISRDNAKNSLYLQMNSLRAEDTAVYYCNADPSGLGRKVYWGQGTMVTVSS	161
PVRIG-A50-H1d (Fc fusion, VHH-human IgG1 Fc format is stated for the parental VHH antibodies; not restated for the humanized variants; also called A50.VH1d; not shown: human IgG1 hinge-CH2-CH3 (Fc)) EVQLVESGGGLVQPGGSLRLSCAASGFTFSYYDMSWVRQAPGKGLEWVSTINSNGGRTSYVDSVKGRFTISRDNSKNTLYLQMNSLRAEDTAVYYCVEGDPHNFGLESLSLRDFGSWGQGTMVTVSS	115

# batch: return % IC50 to COM701-hIgG4 for each of the 3 binders below
1. PVRIG-A118-H4 (Fc fusion, VHH-human IgG1 Fc format is stated for the parental VHH antibodies; not restated for the humanized variants; also called A118.VH4; not shown: human IgG1 hinge-CH2-CH3 (Fc)) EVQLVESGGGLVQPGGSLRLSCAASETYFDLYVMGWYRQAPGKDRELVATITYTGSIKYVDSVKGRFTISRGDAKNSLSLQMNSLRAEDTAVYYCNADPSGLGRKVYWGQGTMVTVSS
2. PVRIG-A105-H5 (Fc fusion, VHH-human IgG1 Fc format is stated for the parental VHH antibodies; not restated for the humanized variants; also called A105.VH5; not shown: human IgG1 hinge-CH2-CH3 (Fc)) EVQLVESGGGLVQPGGSLRLSCAASGRTFDRHTMTWFRQAPGKEREFVATASRIPGDTYYVDSVKGRFTISRDNAKNSLYLQMNSLRAEDTAVYYCAATSAYCSEVDCYEKGSWYDNWGQGIQVTVSS
3. PVRIG-A118-H3 (Fc fusion, VHH-human IgG1 Fc format is stated for the parental VHH antibodies; not restated for the humanized variants; also called A118.VH3; not shown: human IgG1 hinge-CH2-CH3 (Fc)) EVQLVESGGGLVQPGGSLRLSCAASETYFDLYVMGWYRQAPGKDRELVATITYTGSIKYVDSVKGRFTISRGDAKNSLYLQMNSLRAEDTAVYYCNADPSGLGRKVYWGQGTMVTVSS

A:
1: 141; 2: 110; 3: 146
